# TESTED_ON: human Claudin18.2 (human)
# PROCEDURE_DETAILS: cell-based or functional assay
Parameter CDC % Relative activity: see the listing below.
Be sure to follow the number with its unit.

As a guide, the following entries are already answered.
201F4H6 (antibody, V domains shown) VH: QVQLKESGPGLVAPSQSLSITCTVSGFSLTSYGVSWVRQPPGKGLECLGVIWAGGNTNYNSALMSRLSISKDKSKSQVFLKMNSLQTDDTAMYYCARVYYGNAMDYWGQGTSVTVSS VL: DIVMTQSPSSLTVTAGEKVTMSCKSSQSLLNSGNQKSYLTWYQQRPGQPPKLLIYWASTRESGVPDRFTGSGSGTDFTLTISSVQAEDLAVYFCQNVYFFPFTFGSGTKLETK : 135%
411G12G1 (antibody, V domains shown) VH: DVQLVESGGGLVQPGGSRKLSCAASGFTFSGFGMHWIRQAPEKGLEWVAYISSGSRPIYYADTVKGRFTISRDNPKNTLFLQMTSLRSEDTAMYFCARFYYGNSFDHWGQGTLVTVSA VL: DIVMTQSPSFLTVTAGEKVTMSCKSSQSLLNSGNQKNYLTWYQQKPGQPPKLLIYWASTRESGVPDRFTGSGSGTDFTLTISSVQAEDLAVYYCQNDYSFPLTFGAGTKLELK : 28.5%

Note: attention shifts to another entry.
Value lookup for CDC % Relative activity; key = 203A6D5 (antibody, V domains shown) VH: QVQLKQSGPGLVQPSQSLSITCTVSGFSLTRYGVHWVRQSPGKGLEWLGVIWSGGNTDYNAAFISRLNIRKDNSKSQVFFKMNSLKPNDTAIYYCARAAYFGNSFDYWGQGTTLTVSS VL: DIVMTQSPSSLPVTAGEKVTMSCKSSQSLLNSGNQKNYLTWYQQKPGQPPKLLIYWASTRDSGVPDRFTGSGSGTDFTLTISSVQAEDLAVYYCQNNYIYPLTFGAGTKLELK
571%
